# Test system: TERT-RPE1
# Assay Name: Here: values are normalized to the negative (DMSO; defined as 0% autophagy induction) and positive (250nM Torin1; mTOR inhibitor; defined as maximal inducer of autophagy = 100%) control compounds and represented as % of autophagy induction. […] The impact of autophagy induction on cells is complex and depends on the affected target. As such, the magnitude of a phenotype may not be equally mirrored in the %-value of autophagy induction and vice versa. The dynamics of the induction may indicate the mode of activation: e.g. activation via phosphorylation or a signaling cascade may occur fast, while activation via transcription factors may take considerably longer. […] Of note, treatment concentrations may be sub-optimal for specific compounds, leading to false negative annotations.
# Format: functional, Homo sapiens
# Stated Conditions: Compound Concentration 10 uM, Timepoint 12 hours, Culturing Media DMEM/F12 (1:1), 1 % Penicillin/Streptomycin, 10% Fetal bovin serum Add-On: No, Screening Media Control DMEM/F12 (1:1), Screening Media Samples DMEM/F12 (1:1)
Examples of compounds with documented autophagy induction follow.
Form entry: value (%) — number only.

See these solved cases before continuing.
Record CSc1ccc(C(=O)N[C@@H]2CCCC[C@@H]2NC(=O)CNC(=O)c2cc(C(F)(F)F)ccc2NC(=O)NC(C)C)cc1 , field autophagy induction: -4.351

Record N#Cc1c[nH]c2c(C(=O)N3CCN(CCc4ccc(F)cc4)CC3)cccc12 [PRUVANSERIN] , field autophagy induction: -0.3174

Record CCC(C)N(C)C(=O)c1cc2ccccc2c(-c2ccccc2Cl)n1 (stereo not drawn) [PK-11195] , field autophagy induction: -6.134

More entries:
Record C[C@H](Cc1cc2c(c(C(N)=O)c1)N(CCCO)CC2)NCCOc1ccccc1OCC(F)(F)F [SILODOSIN] , field autophagy induction: -0.1283

Record CCCCN(CCCC)C(=O)CN1C[C@@H](c2ccc3c(c2)OCO3)[C@H](C(=O)O)[C@H]1c1ccc(OC)cc1 , field autophagy induction: 0.4134

The measurements presented in this section are drawn from ChEMBL document CHEMBL5724696.
